# METHOD: chemical genetic growth profiling, strain panel (AID 1159580);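 note: tested at 20 µM; growth read once vehicle control cultures reached saturation at 30 °C; 1 = growth at the plate median or of vehicle wells; lower values mean less growth of the strain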
# APPLIED CONDITIONS: S. cerevisiae deletion strains, growth OD, locus YOR184W, strain ser1
In all, about 5,500 compounds went through this assay and about 2,000 (36%) were called active. Inconclusive results (about 18%) are left out. Cut-off read from the data, not from the text of the source: active = normalized growth mostly below about 0.91 (no sharp cut-off); inconclusive = no clear call, values can overlap the other calls; inactive = mostly above about 0.92. This is one part of the list.
Outcomes you can answer with include only these: active, inactive

Asked: Identify the outcome logged in this assay for the compound shown: CC(=O)Oc1cc(C)c2c(c1C(OC(C)=O)OC(C)=O)Oc1c(c(C)c(OC(C)=O)c3c1C(OC(C)=O)OC3=O)OC2=O (configuration not stated)
Given back: inactive

Asked: Identify the outcome logged in this assay for the compound shown: COc1cc2c(cc1O)CC1c3c(cc(O)c(OC)c3-2)CCN1C (configuration not stated)
Given back: inactive

Asked: Identify the outcome logged in this assay for the compound shown: `COP(=S)(OC)Oc1ccc(SC)c(C)c1`
Given back: inactive

###

# METHOD: chemical genetic growth profiling, strain panel (AID 1159580);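 note: tested at 20 µM; growth read once vehicle control cultures reached saturation at 30 °C; 1 = growth at the plate median or of vehicle wells; lower values mean less growth of the strain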
# APPLIED CONDITIONS: S. cerevisiae deletion strains, growth OD, locus YBR023C, strain chs3
Screen size: about 5,500 compounds; about 2,000 (36%) were called active. Inconclusive results (about 18%) are left out. Cut-off read from the data, not from the text of the source: active = normalized growth mostly below about 0.91 (no sharp cut-off); inconclusive = no clear call, values can overlap the other calls; inactive = mostly above about 0.92. The list shows a part of the results.
Outcomes you can answer with include only these: label 1 = active, label 0 = inactive

{"COMPOUND": "COc1cc2c(cc1O)CC1c3c(cc(O)c(OC)c3-2)CCN1C (stereo not given)", "CATEGORY": "label 0"}
{"COMPOUND": "O=c1cccc2n1C[C@H]1CNCC2C1", "CATEGORY": "label 0"}
{"COMPOUND": "CN(C)CCCO[C@H]1[C@@H](C(O)CO)OC2OC(C)(C)O[C@@H]21 (stereo not given in full)", "CATEGORY": "label 0"}
{"COMPOUND": "CCn1cc(C(=O)O)c(=O)c2cnc(N3CCNCC3)nc21", "CATEGORY": "label 0"}
{"COMPOUND": "c1cc2c(cc1[C@H]1OC[C@H]3[C@@H]1CO[C@H]3c1ccc3c(c1)OCO3)OCO2", "CATEGORY": "label 1"}

Asked: Identify the outcome logged in this assay for the compound shown: `COc1ccc2c(c1O)-c1c(OC)c(OC)cc3c1[C@H](C2)N(C)CC3`
Given back: label 0

Asked: Identify the outcome logged in this assay for the compound shown: `O=C(O)c1ccc2c(c1)OCO2`
Given back: label 0

Asked: Identify the outcome logged in this assay for the compound shown: N[C@@H](CCC(=O)N[C@@H](CCSC(CC(=O)O)C(=O)O)C(=O)NCC(=O)O)C(=O)O (stereo not given in full)
Given back: label 0

Asked: Identify the outcome logged in this assay for the compound shown: COc1ccc(C[C@H](N)C(=O)N[C@@H]2[C@@H](CO)OC(n3cnc4c(N(C)C)ncnc43)[C@@H]2O)cc1 (stereo not given in full)
Given back: label 0

Asked: Identify the outcome logged in this assay for the compound shown: `CCn1cc(C(=O)O)c(=O)c2ccc(C)nc21`
Given back: label 0

###

# METHOD: chemical genetic growth profiling, strain panel (AID 1159580);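 note: tested at 20 µM; growth read once vehicle control cultures reached saturation at 30 °C; 1 = growth at the plate median or of vehicle wells; lower values mean less growth of the strain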
# APPLIED CONDITIONS: S. cerevisiae deletion strains, growth OD, locus YNL248C, strain rpa49, active compounds read low
The whole screen tested about 5,500 compounds, of which about 2,000 (36%) were called active. Roughly 18% stayed inconclusive and do not appear here. This is one part of the list.
VALUE TYPE: normalized growth

// worked examples, normalized growth included
{"COMPOUND": "CCn1cc(C(=O)O)c(=O)c2cnc(N3CCNCC3)nc21", "normalized growth": "1.04 (inactive)"}
{"COMPOUND": "Cc1cccc(CN2CCN(C(c3ccccc3)c3ccc(Cl)cc3)CC2)c1 (stereo not given)", "normalized growth": "0.806 (active)"}
{"COMPOUND": "Nc1ccc(S(=O)(=O)Nc2nccs2)cc1", "normalized growth": "0.998 (inactive)"}

List reported normalized growth for each of these compounds:
1. Nc1nc2ncc(CNc3ccc(C(=O)N[C@@H](CCC(=O)O)C(=O)O)cc3)nc2c(=O)[nH]1
2. O=C(O)P(=O)(O)O
3. CC1(C)C2CC(=O)O[C@@]3(C)C4=CC(=O)O[C@@H](c5ccoc5)[C@]4(C)CCC3[C@@]2(C)C=C[C@H]1O (stereo not given in full)
4. COc1ccc(C[C@H](N)C(=O)N[C@@H]2[C@@H](CO)OC(n3cnc4c(N(C)C)ncnc43)[C@@H]2O)cc1 (stereo not given in full)
5. NC(=O)c1ccc(N)nc1
6. CO[C@@H]1[C@@H](O[C@@H]2O[C@H](C)[C@@H](O[C@H]3C[C@@](C)(O)[C@H](O)[C@H](C)O3)[C@H](N(C)C)[C@H]2O)[C@@H](CC=O)C[C@@H](C)[C@@H](O[C@H]2CC[C@H](N(C)C)[C@@H](C)O2)/C=C/C=C/C[C@H](C)OC(=O)C[C@H]1O
7. O=C(O)CNCP(=O)(O)O

Given back:
1. 0.994 (inactive)
2. 0.981 (inactive)
3. 0.98 (inactive)
4. 1.01 (inactive)
5. 1.01 (inactive)
6. 1.01 (inactive)
7. 1.01 (inactive)

List reported normalized growth for each of these compounds:
1. CCOC(=O)CCCCCCCCCCCCC1C=CCC1 (stereo not given)
2. CN(Cc1cnc2nc(N)nc(N)c2n1)c1ccc(C(=O)NC(CCC(=O)O)C(=O)O)cc1 (stereo not given)
3. CCCc1cc(OC)c2c(c1)OCO2
4. Cc1ccc(C(C)C)cc2c(C)ccc1-2
5. C=CC1=C(C)/C(=C/c2[nH]c(Cc3[nH]c(/C=C4\NC(=O)C(C)=C4C=C)c(C)c3CCC(=O)O)c(CCC(=O)O)c2C)NC1=O
6. O=C(O)CCC(=O)c1ccc(-c2ccccc2)cc1
7. N[C@@H](CCC(=O)N[C@@H](CCSC(CC(=O)O)C(=O)O)C(=O)NCC(=O)O)C(=O)O (stereo not given in full)
8. CCC(COC(=O)c1cc(OC)c(OC)c(OC)c1)(c1ccccc1)N(C)C (stereo not given)

Given back:
1.01 (inactive)
0.925 (inactive)
0.989 (inactive)
1.02 (inactive)
0.938 (inactive)
0.993 (inactive)
1.02 (inactive)
0.945 (inactive)

List reported normalized growth for each of these compounds:
1. CCn1cc(C(=O)O)c(=O)c2cc3c(cc21)OCO3
2. COC(=O)[C@H]1[C@H]2C[C@@H]3c4[nH]c5cc(OC)ccc5c4CCN3C[C@H]2C[C@@H](OC(=O)c2cc(OC)c(OC)c(OC)c2)[C@@H]1OC

Given back:
["0.964 (inactive)", "0.955 (inactive)"]

This collection of values is drawn from PubChem BioAssay AID1159580.
